Would you mind telling me the reported relative viability of each entry?
Tested on: LU99A
Test: relative viability (nuclei count vs DMSO), 5 days (fraction); higher = more cells survive
Details: first compound 0.8 µM
Please give only the number in your answer, with no unit.

Qu. What does the data say about its relative viability? Entry: Oc1nc(-c2ccc(C(F)(F)F)cc2)nc2c1CSCC2 [XAV939] + CS(=O)(=O)N1CCN(Cc2cc3nc(-c4cccc5[nH]ncc45)nc(N4CCOCC4)c3s2)CC1 [Pictilisib] (partner 1 µM)
Ans. 0.305

Qu. Try this compound too: Oc1nc(-c2ccc(C(F)(F)F)cc2)nc2c1CSCC2 [XAV939] + COc1cc2c(Oc3ccc(NC(=O)C4(C(=O)Nc5ccc(F)cc5)CC4)cc3F)ccnc2cc1OCCCN1CCOCC1 [Foretinib] (partner 0.25 µM)
Ans. 0.744

Qu. Try this compound too: Oc1nc(-c2ccc(C(F)(F)F)cc2)nc2c1CSCC2 [XAV939] + O=C(c1cc(Cc2n[nH]c(=O)c3ccccc23)ccc1F)N1CCN(C(=O)C2CC2)CC1 [Olaparib] (partner 8 µM)
Ans. 0.271

====

Test system: NCI-H650
Test: relative viability (nuclei count vs DMSO), 5 days (fraction); higher = more cells survive
Settings: first compound 0.5 µM
parameter: relative viability

Qu. What does the data say about its relative viability? Entry: CC1(C)CCC(c2ccc(Cl)cc2)=C(CN2CCN(c3ccc(C(=O)NS(=O)(=O)c4ccc(N[C@H](CCN5CCOCC5)CSc5ccccc5)c(S(=O)(=O)C(F)(F)F)c4)cc3)CC2)C1 [Navitoclax] + COc1cc2c(Oc3ccc(NC(=O)C4(C(=O)Nc5ccc(F)cc5)CC4)cc3F)ccnc2cc1OCCCN1CCOCC1 [Foretinib] (partner 0.25 µM)
Ans. 1.07

Qu. Try this compound too: CC1(C)CCC(c2ccc(Cl)cc2)=C(CN2CCN(c3ccc(C(=O)NS(=O)(=O)c4ccc(N[C@H](CCN5CCOCC5)CSc5ccccc5)c(S(=O)(=O)C(F)(F)F)c4)cc3)CC2)C1 [Navitoclax] + CC(=O)Nc1cccc(-n2c(=O)n(C3CC3)c(=O)c3c(Nc4ccc(I)cc4F)n(C)c(=O)c(C)c32)c1 [Trametinib] (partner 0.02 µM)
Ans. 0.878

Qu. Try this compound too: CC1(C)CCC(c2ccc(Cl)cc2)=C(CN2CCN(c3ccc(C(=O)NS(=O)(=O)c4ccc(N[C@H](CCN5CCOCC5)CSc5ccccc5)c(S(=O)(=O)C(F)(F)F)c4)cc3)CC2)C1 [Navitoclax] + Cc1nc(NC(=O)N2CCC[C@H]2C(N)=O)sc1-c1ccnc(C(C)(C)C(F)(F)F)c1 [Alpelisib] (partner 2 µM)
Ans. 1.16

Qu. Try this compound too: CC1(C)CCC(c2ccc(Cl)cc2)=C(CN2CCN(c3ccc(C(=O)NS(=O)(=O)c4ccc(N[C@H](CCN5CCOCC5)CSc5ccccc5)c(S(=O)(=O)C(F)(F)F)c4)cc3)CC2)C1 [Navitoclax] + CCNC(=O)c1noc(-c2cc(C(C)C)c(O)cc2O)c1-c1ccc(CN2CCOCC2)cc1 [Luminespib] (partner 0.01 µM)
Ans. 0.827

Qu. Try this compound too: CC1(C)CCC(c2ccc(Cl)cc2)=C(CN2CCN(c3ccc(C(=O)NS(=O)(=O)c4ccc(N[C@H](CCN5CCOCC5)CSc5ccccc5)c(S(=O)(=O)C(F)(F)F)c4)cc3)CC2)C1 [Navitoclax] + C[C@]1(O)C[C@@H](c2nc(-c3ccc4ccc(-c5ccccc5)nc4c3)c3c(N)nccn32)C1 [Linsitinib] (partner 1 µM)
Ans. 0.846

====

System: NCI-H441
Test: relative viability (nuclei count vs DMSO), 5 days (fraction); higher = more cells survive
Conditions: first compound 0.03162 µM
parameter: relative viability

Qu. Entry NC(=O)Nc1cc(-c2cccc(F)c2)sc1C(=O)N[C@H]1CCCNC1 [AZD7762] + CC1(C)CCC(c2ccc(Cl)cc2)=C(CN2CCN(c3ccc(C(=O)NS(=O)(=O)c4ccc(N[C@H](CCN5CCOCC5)CSc5ccccc5)c(S(=O)(=O)C(F)(F)F)c4)cc3)CC2)C1 [Navitoclax] (partner 0.5 µM) , system NCI-H441: what relative viability was measured?
Ans. 0.684

Qu. Try this molecule too: NC(=O)Nc1cc(-c2cccc(F)c2)sc1C(=O)N[C@H]1CCCNC1 [AZD7762] + CC(=O)Nc1cccc(-n2c(=O)n(C3CC3)c(=O)c3c(Nc4ccc(I)cc4F)n(C)c(=O)c(C)c32)c1 [Trametinib] (partner 0.02 µM)
Ans. 0.574

Qu. Try this molecule too: NC(=O)Nc1cc(-c2cccc(F)c2)sc1C(=O)N[C@H]1CCCNC1 [AZD7762] + Nc1nc2[nH]cc(CCc3ccc(C(=O)N[C@@H](CCC(=O)O)C(=O)O)cc3)c2c(=O)[nH]1 [Pemetrexed] (partner 0.2 µM)
Ans. 0.288

Qu. Try this molecule too: NC(=O)Nc1cc(-c2cccc(F)c2)sc1C(=O)N[C@H]1CCCNC1 [AZD7762] + Nc1ncn([C@H]2C[C@H](O)[C@@H](CO)O2)c(=O)n1 [Decitabine] (partner 2 µM)
Ans. 0.29

Qu. Try this molecule too: NC(=O)Nc1cc(-c2cccc(F)c2)sc1C(=O)N[C@H]1CCCNC1 [AZD7762] + Cc1nc(Nc2ncc(C(=O)Nc3c(C)cccc3Cl)s2)cc(N2CCN(CCO)CC2)n1 [Dasatinib] (partner 0.075 µM)
Ans. 0.68

Qu. Try this molecule too: NC(=O)Nc1cc(-c2cccc(F)c2)sc1C(=O)N[C@H]1CCCNC1 [AZD7762] + O=C(CCCCCCC(=O)Nc1ccccc1)NO [Vorinostat] (partner 1 µM)
Ans. 0.804

Qu. Try this molecule too: NC(=O)Nc1cc(-c2cccc(F)c2)sc1C(=O)N[C@H]1CCCNC1 [AZD7762] + O=C(c1cc(Cc2n[nH]c(=O)c3ccccc23)ccc1F)N1CCN(C(=O)C2CC2)CC1 [Olaparib] (partner 8 µM)
Ans. 0.795

Qu. Try this molecule too: NC(=O)Nc1cc(-c2cccc(F)c2)sc1C(=O)N[C@H]1CCCNC1 [AZD7762] + CC(=O)c1c(C)c2cnc(Nc3ccc(N4CCNCC4)cn3)nc2n(C2CCCC2)c1=O [Palbociclib] (partner 0.5 µM)
Ans. 0.26

Qu. Try this molecule too: NC(=O)Nc1cc(-c2cccc(F)c2)sc1C(=O)N[C@H]1CCCNC1 [AZD7762] + CCNC(=O)c1noc(-c2cc(C(C)C)c(O)cc2O)c1-c1ccc(CN2CCOCC2)cc1 [Luminespib] (partner 0.01 µM)
Ans. 0.489

====

Tested on: NCI-H2085
Assay: relative viability (nuclei count vs DMSO), 5 days (fraction); higher = more cells survive
Conditions: first compound 8 µM
Decision: relative viability beneath 0.7 gives yes; relative viability meeting or exceeding 0.7 gives no.

Qu. is_below(relative viability, 0.7) for C=C1C(=O)O[C@@H](CCCCCCCC)[C@@H]1C(=O)O [C-75] + CC(C)C[C@H](NC(=O)[C@H](Cc1ccccc1)NC(=O)c1cnccn1)B(O)O [Bortezomib] (partner 0.002 µM) ?
Ans. no

Qu. Try this compound too: C=C1C(=O)O[C@@H](CCCCCCCC)[C@@H]1C(=O)O [C-75] + C[C@]1(O)C[C@@H](c2nc(-c3ccc4ccc(-c5ccccc5)nc4c3)c3c(N)nccn32)C1 [Linsitinib] (partner 1 µM)
Ans. no

Qu. Try this compound too: C=C1C(=O)O[C@@H](CCCCCCCC)[C@@H]1C(=O)O [C-75] + Cc1nc(Nc2ncc(C(=O)Nc3c(C)cccc3Cl)s2)cc(N2CCN(CCO)CC2)n1 [Dasatinib] (partner 0.075 µM)
Ans. yes

Qu. Try this compound too: C=C1C(=O)O[C@@H](CCCCCCCC)[C@@H]1C(=O)O [C-75] + NC(=O)Nc1cc(-c2cccc(F)c2)sc1C(=O)N[C@H]1CCCNC1 [AZD7762] (partner 0.2 µM)
Ans. no

Qu. Try this compound too: C=C1C(=O)O[C@@H](CCCCCCCC)[C@@H]1C(=O)O [C-75] + Cc1cc(Nc2cc(N3CCN(C)CC3)nc(Sc3ccc(NC(=O)C4CC4)cc3)n2)n[nH]1 [Tozasertib] (partner 0.1 µM)
Ans. yes

Qu. Try this compound too: C=C1C(=O)O[C@@H](CCCCCCCC)[C@@H]1C(=O)O [C-75] + CC(=O)Nc1cccc(-n2c(=O)n(C3CC3)c(=O)c3c(Nc4ccc(I)cc4F)n(C)c(=O)c(C)c32)c1 [Trametinib] (partner 0.02 µM)
Ans. yes

Qu. Try this compound too: C=C1C(=O)O[C@@H](CCCCCCCC)[C@@H]1C(=O)O [C-75] + Cc1nc(NC(=O)N2CCC[C@H]2C(N)=O)sc1-c1ccnc(C(C)(C)C(F)(F)F)c1 [Alpelisib] (partner 2 µM)
Ans. no
